- Test system: Plasmodium berghei
- Measurement Notes: Screen against P. berghei liver stage (PbLuc), transformed with Luciferase, at 2uM
- Format: functional, HepG2
- Run Conditions: tested at 2 uM
The campaign covered roughly 68,000 compounds. About 2,700 (4%) showed an effect of 50% or more. This is one part of a sample in which strong results are shown more often than they occur.
Reported Property: INHIBITION
Write the quantity with the unit trailing the number.

Request: State INHIBITION (Plasmodium berghei) of CCN1C[C@@H]2C[C@H](C(=O)NCc3cccnc3)[C@H](C1)O2 .
Response: -19.81%

More entries:
Request: State INHIBITION (Plasmodium berghei) of CC1CN(C(=O)Nc2cc(C(F)(F)F)c[nH]c2=O)CC(C)(C)O1 (stereo unspecified) .
Response: 51.31%

* * *

- System: Plasmodium berghei
- Measurement Notes: Screen against P. berghei liver stage (PbLuc), transformed with Luciferase, at 2uM
- Format: functional, HepG2
- Run Conditions: tested at 2 uM
The whole screen tested about 68,000 compounds, of which about 2,700 (4%) showed an effect of 50% or more. Shown is part of a subset that was picked to be rich in strong results.
Reported Property: INHIBITION
Write the quantity with the unit trailing the number.

Known results for molecules:
Request: Provide one value: measured INHIBITION of CCS(=O)(=O)c1ccc2oc([C@H]3CCN(Cc4ccccc4)C3)nc2c1
Response: 55.66%

Request: Provide one value: measured INHIBITION of COc1ccccc1CCNC(=O)CNC1CCc2nc(C)nn2C1 (stereo unspecified)
Response: 35.56%

Request: Provide one value: measured INHIBITION of Cc1nc2n(n1)CC(NCC(=O)NCC1(c3ccccc3)CC1)CC2 (stereo unspecified)
Response: 58.69%

Request: Provide one value: measured INHIBITION of COCC(O)CN(C)C(=O)NC1CCN(Cc2ccccn2)CC1 (stereo unspecified)
Response: 54.85%

Request: Provide one value: measured INHIBITION of Cc1cc(CN(C)C(=O)NC2CCN(Cc3ccccn3)CC2)no1
Response: -7.82%

More entries:
Request: Provide one value: measured INHIBITION of CCS(=O)(=O)c1ccc2oc([C@H]3CCN(CC4CCCCC4)C3)nc2c1
Response: 44.13%

Request: Provide one value: measured INHIBITION of Cc1nn(C)cc1C1=NS(=O)(=O)N(C)C(C(=O)Nc2ccc(Cl)cc2)=C1
Response: -13.02%

Request: Provide one value: measured INHIBITION of CCCOc1ccc(CC2=NC(C)(CO)CO2)cc1 (stereo unspecified)
Response: -27.61%

Request: Provide one value: measured INHIBITION of Cc1nc2n(n1)CC(NCC(=O)Nc1cc(C)on1)CC2 (stereo unspecified)
Response: -2.87%

Request: Provide one value: measured INHIBITION of Cc1ccc2[nH]c(=O)c(CNCCCN3CCOCC3)cc2c1
Response: 22.39%

Request: Provide one value: measured INHIBITION of CCS(=O)(=O)c1ccc2oc([C@H]3CCN(Cc4ccncc4)C3)nc2c1
Response: 61.7%

* * *

- Test system: Plasmodium berghei
- Measurement Notes: Screen against P. berghei liver stage (PbLuc), transformed with Luciferase, at 2uM
- Assay type: functional, HepG2
- Run Conditions: tested at 2 uM
Hit rate of the full screen: of about 68,000 compounds, about 2,700 (4%) showed an effect of 50% or more. This excerpt belongs to a sample that is enriched for strong results.
Reported Property: INHIBITION (%)
Give your result in % as a bare value.

Known results for compounds:
Request: Provide one value: measured INHIBITION of COCCCN1CC2(CCN(Cc3cc(C(C)C)no3)CC2)CC1=O
Response: -9.78

Request: Provide one value: measured INHIBITION of CCS(=O)(=O)NC1CCCN(c2ccc(F)cc2C)C1=O (configuration not stated)
Response: -13.11

Request: Provide one value: measured INHIBITION of COCCCN1CC2(CCC1=O)CCN(Cc1cc(C(C)C)no1)CC2
Response: 50.86

Request: Provide one value: measured INHIBITION of COCC1CN(C(=O)CC2Cc3ccccc3C2)Cc2c1cnn2C (configuration not stated)
Response: 56.25

Request: Provide one value: measured INHIBITION of O=C(c1nn(-c2ccccc2F)cc1O)N1CCCCC1
Response: -10.64

Now for another entry.
Request: Provide one value: measured INHIBITION of O=C(CN1CC(c2ccccc2)CC1=O)NCc1cc2n(n1)CCNC2 (configuration not stated)
Response: 66.18

* * *

- System: Plasmodium berghei
- Measurement Notes: Screen against P. berghei liver stage (PbLuc), transformed with Luciferase, at 2uM
- Type: functional, HepG2
- Run Conditions: tested at 2 uM
Out of some 68,000 compounds screened, about 2,700 (4%) showed an effect of 50% or more. This is one part of a sample in which strong results are shown more often than they occur.
# maps each entry to its INHIBITION
Give your result in % as a bare value.

Known results for molecules:
Request: Provide one value: measured INHIBITION of CC(=O)NCC1CCC2(CCN(c3ncc(C)cn3)CC2)O1 (centres undefined)
Response: 58.03

Request: Provide one value: measured INHIBITION of Cc1cc(F)ccc1S(=O)(=O)N1CCN(C)Cc2ccccc21
Response: 26.62

Request: Provide one value: measured INHIBITION of CCc1cnc(C)nc1NCC(O)CN1CCCCCC1 (centres undefined)
Response: 80.68

Request: Provide one value: measured INHIBITION of O=C(NCCN1CCOCC1)c1ccn(COc2ccc(F)cc2)n1
Response: -10.62

Request: Provide one value: measured INHIBITION of Cc1ccc(C(=O)NCCN2CCOCC2)c(=O)[nH]1
Response: -84.65

Request: Provide one value: measured INHIBITION of CC(C)CC(NC(=O)CSc1ccc(F)c(Cl)c1)C(=O)O (centres undefined)
Response: 14.54

More entries:
Request: Provide one value: measured INHIBITION of CC(Cn1ccnc1)NCc1csc2c1CCCC2 (centres undefined)
Response: 66.4

Request: Provide one value: measured INHIBITION of CC1(C)CN(C(=O)c2ncc(F)cc2F)CCC1(O)CN1CCOCC1 (centres undefined)
Response: 31.97

* * *

# maps each entry to its INHIBITION
- System: Plasmodium berghei
- Measurement Notes: Screen against P. berghei liver stage (PbLuc), transformed with Luciferase, at 2uM
- Assay type: functional, HepG2
- Run Conditions: tested at 2 uM
Out of some 68,000 compounds screened, about 2,700 (4%) showed an effect of 50% or more. For the sample, strong results were picked, then their nearest neighbours and some compounds at random.
Give your result in % as a bare value.

Known results for compounds:
Request: State INHIBITION (Plasmodium berghei) of O=C(c1ccc(F)cc1F)N1CCN(C(=O)C2CCCCC2)CC1 .
Response: 16.54

Request: State INHIBITION (Plasmodium berghei) of CN(CC(=O)N(CCC#N)c1ccccc1)C1CCc2ccccc21 (configuration not stated) .
Response: -25.33

Request: State INHIBITION (Plasmodium berghei) of Cn1cc(C2CCCN2C(=O)CS(=O)(=O)C2CCCC2)cn1 (configuration not stated) .
Response: -0.06

Request: State INHIBITION (Plasmodium berghei) of N#CCCN(CCC#N)C(=O)CN(C1CC1)C1CCc2ccccc21 (configuration not stated) .
Response: 12.84

Request: State INHIBITION (Plasmodium berghei) of CN(CC(=O)NCCC#N)C(c1ccccc1)c1ccc(F)cc1 (configuration not stated) .
Response: 13.11

More entries:
Request: State INHIBITION (Plasmodium berghei) of Cn1ncnc1CNC1CCc2cc(Cl)ccc21 (configuration not stated) .
Response: 74.44

Request: State INHIBITION (Plasmodium berghei) of Cn1ncnc1CNC1CCCc2cc(F)ccc21 (configuration not stated) .
Response: -9.03

Request: State INHIBITION (Plasmodium berghei) of Cc1ncsc1CN1CCn2c(COc3cccnc3)cnc2C1C (configuration not stated) .
Response: -48.36

Request: State INHIBITION (Plasmodium berghei) of CN(CCC#N)C(=O)CN(C1CC1)C1CCc2ccccc21 (configuration not stated) .
Response: 63.73

Request: State INHIBITION (Plasmodium berghei) of CSc1ccc(CN(C)Cc2noc(C(C)(C)C)n2)cc1 .
Response: 21.28

Request: State INHIBITION (Plasmodium berghei) of O=C(CCc1c[nH]cn1)N1CC[C@@H](c2ccc3ccccc3c2)[C@H](O)C1 .
Response: 43.1

Request: State INHIBITION (Plasmodium berghei) of Cn1cc(CC2CC(=O)N(Cc3ccc(Cl)cc3)C2=O)cn1 (configuration not stated) .
Response: 29.4
